Target: Nuclear receptor ROR-alpha (Homo sapiens)
Test: suppression of basal RORA-driven reporter transcription – cell-based, luminescence, primary screen (AID 561)
Conditions: CHO-K1 Gal4-RORA LBD luciferase reporter, at 10 µM
About 280 (0.43%) of roughly 65,000 compounds were called active.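 Rule for the calls: active = inhibition above the mean of all tested compounds plus 3 SD (cut at about 52% in these data); inactive = the rest.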 Only a selection was taken, and actives are over-represented in it overall.
Possible outcomes: active, inactive

molecule | class_label
COc1ccc(-n2c(SC)nc(O)cc2=O)cc1 | inactive
c1coc(CNc2ncnc3ccccc23)c1 | active
O=C(Cc1ccccc1)n1nc(-c2ccccc2)nc1NCc1ccco1 | inactive
O=C(c1cc(-c2cccs2)on1)N1CCCCC1 | inactive
CCS(=O)(=O)N1CCCC(C(=O)NCc2ccc(C)cc2)C1 (stereo unspecified) | inactive
Cc1noc(C)c1COC(=O)Cn1c(C)nc2ccccc21 | inactive
CCOC(=O)C1=C(CC)Nc2ccccc2N=C1NC(=O)c1cccc(S(=O)(=O)N2CCCC2)c1 | inactive
CCCc1[nH]nc2c1C(c1ccc(OC)c(Cn3nc(C)c(Br)c3C)c1)C(C#N)=C(N)O2 (stereo unspecified) | inactive
Cn1c(SCc2c(F)cccc2Cl)nnc1-c1cnccn1 | inactive
OCCCNC(c1ccccc1)c1ccc(O)cc1 (stereo unspecified) | inactive
Cc1ccc2nc(NC(=O)C3CCN(S(=O)(=O)c4ccc5c(c4)oc(=O)n5C)CC3)sc2c1 | inactive
